- assayed system: Avi-KRAS G12C (2-169) GTP/RAF1 RBD-3xFLAG (51-131) (Homo sapiens, UniProt P01116, G12C)
- Construct: Avi-KRAS G12C (2-169)
- Sequence (P01116 2-169 isoform P01116-2 G12C): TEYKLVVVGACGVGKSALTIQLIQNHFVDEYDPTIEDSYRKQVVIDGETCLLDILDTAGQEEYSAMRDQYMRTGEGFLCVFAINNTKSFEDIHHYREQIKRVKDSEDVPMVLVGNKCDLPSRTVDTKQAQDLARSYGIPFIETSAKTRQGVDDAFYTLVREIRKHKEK
- protocol: Raf1-KRAS G12C-GTP disruption HTRF assay (Biological Example 3)
- Type: binding
- test context: KRAS G12C, GTP-loaded
IC50 by entry:

# compound, IC50
records = [
    ("CCN(c1nc(OC[C@@H]2C[C@@H](OC)CN2C)nc2c(F)c(-c3ccc(F)c4sc(N)c(C#N)c34)c(C(F)(F)F)cc12)[C@H]1CCN(C(=O)OC)C1", "1 to 10 µM"),
    ("C[C@H](c1cccnc1N)N(C)c1nc(OC[C@@]23CCCN2C[C@H](F)C3)nc2c(F)c(-c3ccc(F)c4sc(N)c(C#N)c34)c(C(F)(F)F)cc12 (atropisomer, axis not shown)", "≤ 0.1 µM"),
    ("CCN(c1nc(OC[C@@]23CCCN2C[C@H](F)C3)nc2c(F)c(-c3ccc(F)c4sc(N)c(C#N)c34)c(C(F)(F)F)cc12)[C@H]1CCN(C(=O)N2CC3(CCO3)C2)C1 (atropisomer, axis not shown)", "0.1 to 1 µM"),
    ("CCN(c1nc(OC[C@@]23CCCN2C[C@H](F)C3)nc2c(F)c(-c3ccc(F)c4sc(N)c(C#N)c34)c(C(F)(F)F)cc12)[C@H]1CCN(C(=O)c2ncc(C)s2)C1 (atropisomer, axis not shown)", "0.1 to 1 µM"),
    ("CN(Cc1ccon1)c1nc(OC[C@@]23CCCN2C[C@H](F)C3)nc2c(F)c(-c3ccc(F)c4sc(N)c(C#N)c34)c(C(F)(F)F)cc12 (atropisomer, axis not shown)", "1 to 10 µM"),
]

Next up:
IN: Look up IC50 with Avi-KRAS G12C (2-169) GTP/RAF1 RBD-3xFLAG (51-131) (Homo sapiens, UniProt P01116, G12C) for this compound: C[C@H]1Cn2nc(C(=O)N(C)C)cc2CN1c1nc(OC[C@@]23CCCN2C[C@H](F)C3)nc2c(F)c(-c3ccc(F)c4sc(N)c(C#N)c34)c(C(F)(F)F)cc12 (atropisomer, axis not shown)
OUT: 0.1 to 1 µM

----------
- assayed system: Avi-KRAS G12D (1-169) GppNHp/RAF1 RBD-3xFLAG (52-151) (Homo sapiens, UniProt P01116, G12D)
- Construct: Avi-KRAS G12D (1-169)
- Sequence (P01116 1-169 isoform P01116-2 G12D): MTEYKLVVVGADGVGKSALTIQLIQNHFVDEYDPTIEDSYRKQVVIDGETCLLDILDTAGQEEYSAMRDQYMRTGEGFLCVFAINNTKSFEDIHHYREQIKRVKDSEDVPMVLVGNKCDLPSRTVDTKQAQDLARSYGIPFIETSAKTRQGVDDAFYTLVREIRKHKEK
- protocol: Raf1-KRAS G12D-GppNHP disruption HTRF assay (Biological Example 1)
- Type: binding
- test context: KRAS G12D, GppNHp-loaded; class symbols
pIC50: −log10 of the molar value.
pIC50 by entry:

# compound, assay value
records = [
    ("CCN(c1nc(OC[C@@]23CCCN2C[C@H](F)C3)nc2c(F)c(-c3ccc(F)c4sc(N)c(C#N)c34)c(C(F)(F)F)cc12)[C@H]1C[C@@H](C)N(C(=O)N2CC(F)C2)C1 (atropisomer, axis not shown)", "6.00 to 7.00"),
    ("CCN(c1nc(OC[C@@]23CCCN2C[C@H](F)C3)nc2c(F)c(-c3ccc(F)c4sc(N)c(C#N)c34)c(C(F)(F)F)cc12)[C@H]1CCN(C(=O)[C@@H](C)CF)C1 (atropisomer, axis not shown)", "> 7.00"),
    ("CCN(c1nc(OC[C@@]23CCCN2C[C@H](F)C3)nc2c(F)c(-c3ccc(F)c4sc(N)c(C#N)c34)c(C(F)(F)F)cc12)[C@H]1CCN(C(=O)OC2CCN(C(C)=O)CC2)C1 (atropisomer, axis not shown)", "> 7.00"),
    ("CCN(CC)C(=O)N1CCC(N(CC)c2nc(OCC34CCCN3CC(F)C4)nc3c(F)c(-c4ccc(F)c5sc(N)c(C#N)c45)c(C(F)(F)F)cc23)C1 (centres unmarked)", "> 7.00"),
]

Next up:
IN: Look up pIC50 with Avi-KRAS G12D (1-169) GppNHp/RAF1 RBD-3xFLAG (52-151) (Homo sapiens, UniProt P01116, G12D) for this compound: CCN(c1nc(OC[C@@]23CCCN2C[C@H](F)C3)nc2c(F)c(-c3ccc(F)c4sc(N)c(C#N)c34)c(C(F)(F)F)cc12)[C@H]1CCN(C(=O)[C@H]2CCO2)[C@@H]1C (atropisomer, axis not shown)
OUT: > 7.00
